Tested on: IGROV1 ovarian
Protocol Details: NCI-60 one-dose screen, 48 h (100 = growth as untreated, 0 = no growth, -100 = all killed)
Condition Parameters: 10 µM unless noted
This is part of a sample that, as a whole, favours compounds with a hit. Of some 83,000 tested, about 20% had one in any assay.
Measured Quantity: growth (%)

Compound	System Tested	Value
CC1(C)CC[C@]2(C(=O)O)CC[C@]3(C)C(=CCC4[C@@]5(C)C[C@@H](O)[C@@H]6OC(c7ccccc7O)OC[C@@]6(C)C5CC[C@]43C)C2C1 (some centres undefined)	IGROV1 ovarian	57.2
COc1ccc(C(=O)n2cc(C=O)c3ccccc32)cc1	IGROV1 ovarian	93.4
CC(=O)c1sc(Nc2cccc(Nc3nc(C)c(C)s3)c2)nc1C	IGROV1 ovarian	26.4
COc1cc(/C=N/n2cnc3oc(-c4ccccc4)cc3c2=N)cc(CN2CCCC2)c1O	IGROV1 ovarian	-62.8
CCCCOc1ccc(S(=O)(=O)N2CCN(c3nccc(N4CCOCC4)n3)CC2)cc1	IGROV1 ovarian	9.51
CN(C)CCn1c2ccc(N)cc2c2nc3ccccc3nc21	IGROV1 ovarian	23.2
CN1CCN(Cc2ccc(NC(=O)c3cncc(C#Cc4cnc5ccc(NC6CCOCC6)nn45)c3)cc2C(F)(F)F)CC1	IGROV1 ovarian	-21
C=C1C(=O)O[C@@H]2/C=C(/C)C3=CC(=O)[C@@](C)(C[C@H](OC(=O)/C(C)=C\C)[C@@H]12)O3	IGROV1 ovarian	19
CSc1ccc(/C(=N/N=C(N)N)c2ccccc2)cc1	IGROV1 ovarian	21.8
N#Cc1c(-c2ccccc2)cc(-c2c[nH]c3ccccc23)nc1-c1c[nH]c2ccccc12	IGROV1 ovarian	82.1
Cc1cc(O)c(=O)cc2c1C[C@H]1CC(C)(C)/C=C/C[C@]3(C)Oc4cc(=O)c(O)cc(C)c4C[C@H]3C[C@H](O)[C@@]1(C)O2	IGROV1 ovarian	6.73
O=C1NC(=O)c2c1c1c3ccccc3ccc1c1[nH]c3ccccc3c21	IGROV1 ovarian	9.53
O=c1oc2ccc(-c3ccc(F)cc3F)cc2c(=O)n1-c1ccc(F)c(F)c1	IGROV1 ovarian	15.1
N#C/C(=C\c1ccc(-c2ccc(F)cc2)o1)C(=O)Nc1ncc(Cc2ccc(Cl)cc2Cl)s1	IGROV1 ovarian	-1.72
O=C1Nc2cc(OC(F)(F)F)ccc2Oc2ccc(-c3ccnc(N4CCNCC4)c3)cc21	IGROV1 ovarian	-1.58
N=c1c2cc(-c3ccccc3)oc2ncn1/N=C/c1ccccc1	IGROV1 ovarian	63
C=C(C)C(=O)O[C@H]1C[C@@]2(C)OC(=CC2=O)/C(CO)=C\[C@H]2OC(=O)C(=C)[C@H]12	IGROV1 ovarian	-36
COc1cc([C@H]2OC[C@H]3[C@@H]2CO[C@@H]3c2ccc(O)c(OC)c2)ccc1O	IGROV1 ovarian	69.9
C#CCOc1ccc(C(Nc2ccc(Cl)cc2)c2nnnn2C2CCCCC2)cc1 (centres undefined)	IGROV1 ovarian	84.3

* * *

System: CAKI-1 renal
Protocol Details: NCI-60 one-dose screen, 48 h (100 = growth as untreated, 0 = no growth, -100 = all killed)
Condition Parameters: 10 µM
This is part of a sample that, as a whole, favours compounds with a hit. Of some 83,000 tested, about 20% had one in any assay.
Measured Quantity: growth (%)

Molecule	System Tested	Measured Quantity	Value
CCCCSc1nnc(-c2ccc(-c3ccc(Cl)cc3)nc2C)o1	CAKI-1 renal	growth	95.4
CCN(CC)c1ccc2cc(C(=O)NCCOCCOCCOCCn3cc(CCC(=O)Nc4ccc(C(=O)c5ccc(NC(=O)OC(C)(C)C)cc5)cc4)nn3)c(=O)oc2c1	CAKI-1 renal	growth	25.7
Cc1ccc(-c2cc(-c3ccc(N(C)C)cc3)n3c(n2)nc2ccccc23)cc1	CAKI-1 renal	growth	59.3
CC1(C)CC[C@]2(C(=O)O)CC[C@]3(C)C(=CCC4[C@@]5(C)C[C@@H](O)[C@@H]6OC(c7ccccc7O)OC[C@@]6(C)C5CC[C@]43C)C2C1 (some centres undefined)	CAKI-1 renal	growth	73.5
